// reported protein stability index per item
B1: OAS1 (parent)
chain: LTVYAWERGSMKTHFNTAQGFRTV

Variants of: B1
TEST SUMMARY: protein stability index of a GFP-peptide fusion (GPS, HEK-293T) (PSI 1-6); higher = more stable;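 note: lentivirally expressed fusions sorted by FACS into six bins by GFP to DsRed ratio, PSI derived from sequencing read proportions per bin multiplied by bin number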
TEST CONTEXT: c terminus: a fixed tail appended
Kindly provide the number alone.

MUTANT ID | protein stability index
T23Q | 1.9
H14S | 2.44
L1R | 2.28
G9P | 3.81
W6S | 1.59

Fill blank: measured protein stability index of the variant V24F is ____.
2.35

Okay, and R22H ?
3.33

Okay, and Y4M ?
1.51

Okay, and N16F ?
3.37

Provenance of the data: the supplement of paper PMC10567573
